test system: Hepatitis C virus; assay: Inhibition of HCV 1b NS5B polymerase; design: species or system Hepatitis C virus subtype 1b
MEASUREMENT LABEL: IC50

// worked examples, IC50 included
COMPOUND	IC50
C=CCC1(C)C(=O)C(C2=NS(=O)(=O)c3cc(NS(C)(=O)=O)ccc3N2)=C(O)c2ccccc21 (centres undefined)	225 nM
CC1(CC2CC2)C(=O)C(C2=NS(=O)(=O)c3cc(NS(C)(=O)=O)ccc3N2)=C(O)c2ccccc21 (centres undefined)	40 nM
CC1(CCC2CCC2)C(=O)C(C2=NS(=O)(=O)c3cc(NS(C)(=O)=O)ccc3N2)=C(O)c2ccccc21 (centres undefined)	36 nM

In the following, a different compound is considered.
Summary for this compound, CC1(CCC2CCCC2)C(=O)C(C2=NS(=O)(=O)c3cc(NS(C)(=O)=O)ccc3N2)=C(O)c2ccccc21 (centres undefined) : IC50 is 70 nM

###

system: Hepatitis C virus; test: Inhibition of HCV 1b NS5B polymerase; set-up: species or system Hepatitis C virus subtype 1b
IC50 values, listed per item
Field: numeric (nM). Do not append units.

// worked examples, IC50 included
COMPOUND	RECORDED VALUE
CC1(CCC2CCCCC2)C(=O)C(C2=NS(=O)(=O)c3cc(NS(C)(=O)=O)ccc3N2)=C(O)c2ccccc21 (centres undefined)	194
CC1(CC=C2CCCCC2)C(=O)C(C2=NS(=O)(=O)c3cc(NS(C)(=O)=O)ccc3N2)=C(O)c2ccccc21 (centres undefined)	910
CC(C)(O)CCC1(C)C(=O)C(C2=NS(=O)(=O)c3cc(NS(C)(=O)=O)ccc3N2)=C(O)c2ccccc21 (centres undefined)	193

Then this compound:
Result for CCOC(=O)/C=C/CC1(C)C(=O)C(C2=NS(=O)(=O)c3cc(NS(C)(=O)=O)ccc3N2)=C(O)c2ccccc21 (centres undefined) , tested on Hepatitis C virus, IC50: 5870

###

A collection of compounds and their measured IC50
tested on: Hepatitis C virus; assay: Inhibition of HCV 1b NS5B polymerase; design: species or system Hepatitis C virus subtype 1b
Answer format: numeric, nM implied, no suffix.

Below are worked cases with known answers.
COMPOUND	TARGET DESC	DISPLAY UNIT	RECORDED VALUE
CC1(CC=C2CCCC2)C(=O)C(C2=NS(=O)(=O)c3cc(NS(C)(=O)=O)ccc3N2)=C(O)c2ccccc21 (stereo not drawn)	Hepatitis C virus	nM	550
CC(C)=CC[C@@]1(C)C(=O)C(C2=NS(=O)(=O)c3cc(NS(C)(=O)=O)ccc3N2)=C(O)c2ccccc21	Hepatitis C virus	nM	32
CC(C)(Cl)CCC1(C)C(=O)C(C2=NS(=O)(=O)c3cc(NS(C)(=O)=O)ccc3N2)=C(O)c2ccccc21 (stereo not drawn)	Hepatitis C virus	nM	70

Recorded result, CC1(CCCc2ccccc2)C(=O)C(C2=NS(=O)(=O)c3cc(NS(C)(=O)=O)ccc3N2)=C(O)c2ccccc21 (stereo not drawn) , IC50: 280

// IC50 lookup, compound = CC(C)CCC1(C)C(=O)C(C2=NS(=O)(=O)c3cc(NS(C)(=O)=O)ccc3N2)=C(O)c2ccccc21 (stereo not drawn) , result: 7

Reported IC50 of CC1(C/C=C/c2ccccc2)C(=O)C(C2=NS(=O)(=O)c3cc(NS(C)(=O)=O)ccc3N2)=C(O)c2ccccc21 (stereo not drawn) : 1850

Documented IC50 of CC(C)=CCC1(C)C(=O)C(C2=NS(=O)(=O)c3cc(NS(C)(=O)=O)ccc3N2)=C(O)c2ccccc21 (stereo not drawn) : 147

// field: IC50; key: CC1(CC=C2CCC2)C(=O)C(C2=NS(=O)(=O)c3cc(NS(C)(=O)=O)ccc3N2)=C(O)c2ccccc21 (stereo not drawn) ; value = 425

###

assay: Inhibition of HCV 1a NS5B polymerase; design: species or system Hepatitis C virus subtype 1a
MEASUREMENT LABEL: log10(IC50) (log10 of the value in nM)
# values: log10(IC50), units nM

Here's what some known entries look like.
MOLECULE	RECORDED VALUE
CC1(CCC2CCCC2)C(=O)C(C2=NS(=O)(=O)c3cc(NS(C)(=O)=O)ccc3N2)=C(O)c2ccccc21 (configuration not stated)	1.51
CC1(CC=C2CCCC2)C(=O)C(C2=NS(=O)(=O)c3cc(NS(C)(=O)=O)ccc3N2)=C(O)c2ccccc21 (configuration not stated)	1.97
CCCC1(C)C(=O)C(C2=NS(=O)(=O)c3cc(NS(C)(=O)=O)ccc3N2)=C(O)c2ccccc21 (configuration not stated)	1.30
CC(C)=CCC1(C)C(=O)C(C2=NS(=O)(=O)c3cc(NS(C)(=O)=O)ccc3N2)=C(O)c2ccccc21 (configuration not stated)	1.58
CC(C)(Cl)CCC1(C)C(=O)C(C2=NS(=O)(=O)c3cc(NS(C)(=O)=O)ccc3N2)=C(O)c2ccccc21 (configuration not stated)	1.59
CCOC(=O)/C=C/CC1(C)C(=O)C(C2=NS(=O)(=O)c3cc(NS(C)(=O)=O)ccc3N2)=C(O)c2ccccc21 (configuration not stated)	3.03
CC1(CC=C2CCCCC2)C(=O)C(C2=NS(=O)(=O)c3cc(NS(C)(=O)=O)ccc3N2)=C(O)c2ccccc21 (configuration not stated)	2.29
CC1(CCCc2ccccc2)C(=O)C(C2=NS(=O)(=O)c3cc(NS(C)(=O)=O)ccc3N2)=C(O)c2ccccc21 (configuration not stated)	2.06

Recorded result, CC(C)CCC1(C)C(=O)C(C2=NS(=O)(=O)c3cc(NS(C)(=O)=O)ccc3N2)=C(O)c2ccccc21 (configuration not stated) , log10(IC50): 0.60

// log10(IC50) lookup, molecule = CC(C)CCC1(CCC(C)C)C(=O)C(C2=NS(=O)(=O)c3cc(NS(C)(=O)=O)ccc3N2)=C(O)c2ccccc21 , result: 1.83

###

The following compounds are listed with their measured pIC50 values.
experiment: Inhibition of HCV 1a NS5B polymerase; design: species or system Hepatitis C virus subtype 1a
Kindly note that pIC50 refers to -log10 of the concentration in mol/L and answer with the value alone.

As a guide, the following entries are already answered.
COMPOUND	pIC50
C=CCC1(C)C(=O)C(C2=NS(=O)(=O)c3cc(NS(C)(=O)=O)ccc3N2)=C(O)c2ccccc21 (centres undefined)	7.74
CC1(CCC2CCCCC2)C(=O)C(C2=NS(=O)(=O)c3cc(NS(C)(=O)=O)ccc3N2)=C(O)c2ccccc21 (centres undefined)	7.24
CC1(CC(O)CO)C(=O)C(C2=NS(=O)(=O)c3cc(NS(C)(=O)=O)ccc3N2)=C(O)c2ccccc21 (centres undefined)	6.35

Data point: CC1(C/C=C/c2ccccc2)C(=O)C(C2=NS(=O)(=O)c3cc(NS(C)(=O)=O)ccc3N2)=C(O)c2ccccc21 (centres undefined) ; pIC50 = 6.34

###

assay: Inhibition of HCV 1a NS5B polymerase; set-up: species or system Hepatitis C virus subtype 1a
# Lookup of reported pIC50 keyed by entry
Note on units: pIC50 is unitless, being -log10 of a concentration expressed in mol/L.

Reference set, count: 6
MOLECULE	pIC50
CC(C)=CC[C@]1(C)C(=O)C(C2=NS(=O)(=O)c3cc(NS(C)(=O)=O)ccc3N2)=C(O)c2ccccc21	6.15
CC1(C)C(=O)C(C2=NS(=O)(=O)c3cc(NS(C)(=O)=O)ccc3N2)=C(O)c2ccccc21	6.03
CC(C)(O)CCC1(C)C(=O)C(C2=NS(=O)(=O)c3cc(NS(C)(=O)=O)ccc3N2)=C(O)c2ccccc21 (configuration not stated)	7.37
CC1(CC=C2CCC2)C(=O)C(C2=NS(=O)(=O)c3cc(NS(C)(=O)=O)ccc3N2)=C(O)c2ccccc21 (configuration not stated)	7.06
CC1(CCC2CCC2)C(=O)C(C2=NS(=O)(=O)c3cc(NS(C)(=O)=O)ccc3N2)=C(O)c2ccccc21 (configuration not stated)	7.80
CC1(CC2CC2)C(=O)C(C2=NS(=O)(=O)c3cc(NS(C)(=O)=O)ccc3N2)=C(O)c2ccccc21 (configuration not stated)	7.68

Next molecule, please.
Reported pIC50 ( CC(C)=CC[C@@]1(C)C(=O)C(C2=NS(=O)(=O)c3cc(NS(C)(=O)=O)ccc3N2)=C(O)c2ccccc21 ) = 7.72
